- test-system: human LPA1 (Homo sapiens, UniProt Q92633)
- Construct: expressed in transfected cells; host or cells: Chinese hamster ovary (CHO) cells
- Sequence (Q92633 whole entry): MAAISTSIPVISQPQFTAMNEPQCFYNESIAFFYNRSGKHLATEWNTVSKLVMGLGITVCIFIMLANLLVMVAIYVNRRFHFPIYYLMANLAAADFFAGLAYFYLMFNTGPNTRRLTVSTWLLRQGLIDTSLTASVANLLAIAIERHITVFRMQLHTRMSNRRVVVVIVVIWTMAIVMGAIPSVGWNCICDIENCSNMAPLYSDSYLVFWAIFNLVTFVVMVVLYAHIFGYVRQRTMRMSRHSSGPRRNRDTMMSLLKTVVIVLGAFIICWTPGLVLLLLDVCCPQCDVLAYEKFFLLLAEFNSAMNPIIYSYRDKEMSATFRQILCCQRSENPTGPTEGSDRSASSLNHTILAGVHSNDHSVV
- assay-method-text: LPA1 functional antagonist assay (calcium flux)
- Type: cell-based
- stated-conditions: read-out: hLPA1 IC50
Below is a list of entries, each paired with its recorded log10 of IC50 value.
The base-10 logarithm of IC50, taken with IC50 in nM, is what appears here.

{"columns": ["molecule", "test-system", "assay-value"],
 "data": [
  ["Cc1noc(-c2ccc(O[C@@H]3CCC[C@@H](C(=O)O)C3)cc2)c1CNC(=O)OCC1CCC1 (racemic)", "human LPA1 (Homo sapiens, UniProt Q92633)", 2.61],
  ["Cc1noc(-c2ccc(O[C@H]3CCCC(C(=O)O)C3)cc2)c1CNC(=O)OCC1CC1C (mixture of isomers)", "human LPA1 (Homo sapiens, UniProt Q92633)", 1.99],
  ["Cc1noc(-c2ccc(O[C@H]3CCC[C@H](C(=O)O)C3)cn2)c1CNC(=O)OC1CC(C)(C)C1", "human LPA1 (Homo sapiens, UniProt Q92633)", 1.04],
  ["CCCCOC(=O)NCc1c(C)noc1-c1ccc(O[C@H]2CCC[C@H](C(=O)O)C2)c(C)n1", "human LPA1 (Homo sapiens, UniProt Q92633)", 0.90],
  ["CCCCCOC(=O)NCc1c(C)noc1-c1ccc(O[C@H]2CCC[C@H](C(=O)O)C2)c(C)n1", "human LPA1 (Homo sapiens, UniProt Q92633)", 0.90]
]}

Problem: Name the recorded log10 of IC50 of the molecule listed here: Cc1noc(-c2ccc(O[C@@H]3CCC[C@@H](C(=O)O)C3)cc2)c1CNC(=O)OCCC1CC1
Result: 2.42

Problem: Name the recorded log10 of IC50 of the molecule listed here: Cc1noc(-c2ccc(O[C@H]3CCC[C@H](C(=O)O)C3)cn2)c1CNC(=O)OCCC1CC1
Result: 1.89

----------
Below is a list of entries, each paired with its recorded IC50 value.
- test-system: human LPA1 (Homo sapiens, UniProt Q92633)
- Construct: expressed in transfected cells; host or cells: Chinese hamster ovary (CHO) cells
- assay-method-text: LPA1 functional antagonist assay (calcium flux)
- Assay type: cell-based
- stated-conditions: read-out: hLPA1 IC50
- Experimental: The effectiveness of compounds of the present invention as LPA1 inhibitors can be determined in an LPA1 functional antagonist assay as follows: Chinese hamster ovary cells overexpressing human LPA1 were plated overnight (15,000 cells/well) in poly-D-lysine coated 384-well microplates (Greiner bio-one, Cat #781946) in DMEM/F12 medium (Gibco, Cat #11039). […] IC50 values were determined by fitting data to a 4-parameter logistic equation (GraphPad Prism, San Diego Calif.).
Respond with the bare value in µM.

{"columns": ["compound", "IC50 (µM)"],
 "data": [
  ["Cc1nc(-c2onc(C)c2CN(C)C(=O)OCC(C)C)ccc1O[C@H]1CCC[C@H](C(=O)O)C1", 0.034],
  ["CCCCCCOC(=O)NCc1c(C)noc1-c1ccc(O[C@H]2CCC[C@H](C(=O)O)C2)c(C)n1", 0.006]
]}

Problem: Name the recorded IC50 of the compound listed here: Cc1noc(-c2ccc(O[C@@H]3CCC[C@@H](C(=O)O)C3)cc2)c1CNC(=O)OCc1ccc(F)cc1
Result: 0.159

Problem: Name the recorded IC50 of the compound listed here: CC[C@H](C)COC(=O)NCc1c(C)noc1-c1ccc(O[C@H]2CCC[C@H](C(=O)O)C2)cn1
Result: 0.008

Problem: Name the recorded IC50 of the compound listed here: Cc1noc(-c2ccc(O[C@H]3CCC[C@H](C(=O)O)C3)cn2)c1CNC(=O)OCc1ccccc1 (single isomer, unassigned)
Result: 0.004

Problem: Name the recorded IC50 of the compound listed here: Cc1nc(-c2onc(C)c2CN(C)C(=O)OCc2ccccc2)ccc1O[C@H]1CCC[C@H](C(=O)O)C1
Result: 0.006

Problem: Name the recorded IC50 of the compound listed here: Cc1noc(-c2ccc(O[C@H]3CCC[C@H](C(=O)O)C3)cc2)c1NC(=O)O[C@H](C)C1CC1 (single isomer, unassigned)
Result: 0.084

----------
- test-system: human LPA1 (Homo sapiens)
- Construct: expressed in transfected cells; host or cells: Chinese hamster ovary (CHO) cells
- assay-method-text: LPA1 functional antagonist assay (calcium flux)
- Type: cell-based
- stated-conditions: read-out: hLPA1 IC50
pIC50: −log10 of the molar value.
# if value of pIC50 reaches 7, tag yes (1); if it stays below, tag no (0)

Problem: Has Cc1noc(-c2ccc(O[C@@H]3CCC[C@@H](C(=O)O)C3)cc2)c1CNC(=O)OCC(C)C (racemic) a recorded pIC50 greater than or equal to 7?
Result: no (0)

Problem: Has CCC[C@H](C)OC(=O)NCc1c(C)noc1-c1ccc(O[C@H]2CCC[C@H](C(=O)O)C2)cn1 a recorded pIC50 greater than or equal to 7?
Result: yes (1)

Problem: Has CCCCOC(=O)NCc1c(C)noc1-c1ccc(O[C@H]2CCC[C@H](C(=O)O)C2)cn1 a recorded pIC50 greater than or equal to 7?
Result: yes (1)

Problem: Has Cc1noc(-c2ccc(O[C@@H]3CCC[C@@H](C(=O)O)C3)cn2)c1CNC(=O)OCc1ccccc1 (single isomer, unassigned) a recorded pIC50 greater than or equal to 7?
Result: yes (1)

Problem: Has Cc1noc(-c2ccc(O[C@H]3CCC[C@H](C(=O)O)C3)cn2)c1CNC(=O)CCc1ccccc1 a recorded pIC50 greater than or equal to 7?
Result: no (0)
